pIC50 listing for selected compounds.
tested on: MOLT-4 cells; assay: MOLT-4 cell viability using MTT assay; type: cell-based; conditions: Homo sapiens, MOLT-4, 48 h, 48 h exposure
Formally, pIC50 is defined as -log10 of the concentration c, with c in mol/L.

Cc1c(Nc2nc3ccccc3s2)nnc2c1CCCN2c1ccc(-c2cnn(CC34CC5(C)CC(C)(C3)CC(OCCN(CCCCO)CCCCO)(C5)C4)c2C)c(C(=O)O)n1 ... 8.55
Cc1c(Nc2nc3ccccc3s2)nnc2c1CCCN2c1nc(C(=O)O)c(CCCOc2ccc(C#CCN3CCNCC3)cc2F)s1 ... 9.00
Cc1c(Nc2nc3ccccc3s2)nnc2c1CCCN2c1nc(C(=O)O)c(CCCOc2ccc(C#CCNCCCO)cc2F)s1 ... 9.07
Cc1c(Nc2nc3ccccc3s2)nnc2c1CCCN2c1nc(C(=O)O)c(CCCOc2ccc(C#CCN(C)C)cc2Cl)s1 ... 8.60
Cc1c(Nc2nc3ccccc3s2)nnc2c1CCCN2c1nc(C(=O)O)c(CCCOc2ccc(N3CCN(C)CC3)cc2F)s1 ... 8.56
CCNC(C)(C)C#Cc1ccc(OCCCc2sc(N3CCCc4c3nnc(Nc3nc5ccccc5s3)c4C)nc2C(=O)O)c(F)c1 ... 9.57

The record that follows has no pIC50 shown yet.
Incoming: Give the measured pIC50 of "Cc1c(Nc2nc3ccccc3s2)nnc2c1CCCN2c1nc(C(=O)O)c(CCCOc2ccc(C#CCN3CCN(C)CC3)cc2F)s1" .
Outgoing: 9.51
